meta.source: patent US20260191927A1

Known CMC (mg/mL) of a selection of molecules
assay text: Critical micelle concentration (CMC) of bile salts
Assay type: physicochemical
setup conditions: approximate values; critical micellular concentration
Give the value, in units of mg/ mL mg/mL, as a plain number.

- molecule: "C[C@H](CCC(=O)[O-])[C@H]1CC[C@H]2[C@@H]3[C@H](O)C[C@@H]4C[C@H](O)CC[C@]4(C)[C@H]3C[C@H](O)[C@]12C.[Na+] [CHA, sodium cholate]"
  units label: "mg/ mL mg/mL"
  CMC (mg/mL): 4.5

# next molecule below
Ask | For the molecule shown here, C[C@H](CCC(=O)[O-])[C@H]1CC[C@H]2[C@@H]3[C@H](O)C[C@@H]4C[C@H](O)CC[C@]4(C)[C@H]3CC[C@]12C.[Na+] [CDCA, sodium chenodeoxycholate] , give the reported CMC (mg/mL).
Reply | 1.6

====

Recorded CMC (mg/mL) values for a group of compounds are listed next.
assay text: Critical micelle concentration (CMC) of bile salts
Type: physicochemical
setup conditions: approximate values; critical micellular concentration
Hi! Could you send only the number? It should be in mg/ mL mg/mL, unit omitted.

# annotated cases, reported CMC (mg/mL) shown
- compound: "C[C@H](CCC(=O)NCCS(=O)(=O)[O-])[C@H]1CC[C@H]2[C@@H]3CC[C@@H]4C[C@H](O)CC[C@]4(C)[C@H]3C[C@H](O)[C@]12C.[Na+] [TDCA, sodium taurodeoxycholate]"
  units label: "mg/ mL mg/mL"
  CMC (mg/mL): 1.6
- compound: "C[C@H](CCC(=O)NCCS(=O)(=O)[O-])[C@H]1CC[C@H]2[C@@H]3[C@H](O)C[C@@H]4C[C@H](O)CC[C@]4(C)[C@H]3CC[C@]12C.[Na+] [TCDCA, sodium taurochenodeoxycholate]"
  units label: "mg/ mL mg/mL"
  CMC (mg/mL): 2.1

Okay, now this compound:
Ask | So what's the measured CMC (mg/mL) for this one? C[C@H](CCC(=O)NCC(=O)[O-])[C@H]1CC[C@H]2[C@@H]3[C@H](O)C[C@@H]4C[C@H](O)CC[C@]4(C)[C@H]3CC[C@]12C.[Na+] [GCDCA, sodium glycochenodeoxycholate]
Reply | 0.9

====

assay text: Critical micelle concentration (CMC) of bile salts
Assay type: physicochemical
setup conditions: approximate values; critical micellular concentration
assay endpoint: CMC (mM)
I only need the number, in mM, no unit after it.

Ask | Please report the recorded CMC for C[C@H](CCC(=O)NCCS(=O)(=O)[O-])[C@H]1CC[C@H]2[C@@H]3CC[C@@H]4C[C@H](O)CC[C@]4(C)[C@H]3C[C@H](O)[C@]12C.[Na+] [TDCA, sodium taurodeoxycholate] .
Reply | 3

====

assay text: Critical micelle concentration (CMC) of bile salts
Assay type: physicochemical
setup conditions: approximate values; critical micellular concentration
assay endpoint: CMC (mg/mL) (mg/ mL mg/mL)
Note: unit mg/ mL mg/mL is implicit; provide only the numeric part.

- compound: "C[C@H](CCC(=O)NCC(=O)[O-])[C@H]1CC[C@H]2[C@@H]3CC[C@@H]4C[C@H](O)CC[C@]4(C)[C@H]3C[C@H](O)[C@]12C.[Na+] [GDCA, sodium glycodeoxycholate]"
  value reported: 0.9

# next compound below
Ask | Look up CMC (mg/mL): C[C@H](CCC(=O)NCC(=O)[O-])[C@H]1CC[C@H]2[C@@H]3[C@H](O)C[C@@H]4C[C@H](O)CC[C@]4(C)[C@H]3C[C@H](O)[C@]12C.[Na+] [GCA, sodium glycocholate]
Reply | 5.4

====

Readings of CMC for the listed compounds
assay text: Critical micelle concentration (CMC) of bile salts
Assay type: physicochemical
setup conditions: approximate values; critical micellular concentration
Dear colleague, please return just the value in mM, with no unit written.

Worked examples follow.
- compound: "C[C@H](CCC(=O)[O-])[C@H]1CC[C@H]2[C@@H]3CC[C@@H]4C[C@H](O)CC[C@]4(C)[C@H]3C[C@H](O)[C@]12C.[Na+] [DCA, sodium deoxycholate]"
  units label: "mM"
  CMC: 5
- compound: "C[C@H](CCC(=O)[O-])[C@H]1CC[C@H]2[C@@H]3[C@H](O)C[C@@H]4C[C@H](O)CC[C@]4(C)[C@H]3CC[C@]12C.[Na+] [CDCA, sodium chenodeoxycholate]"
  units label: "mM"
  CMC: 4

Kindly review the next compound as well.
Ask | Consider the compound shown here: C[C@H](CCC(=O)[O-])[C@H]1CC[C@H]2[C@@H]3[C@H](O)C[C@@H]4C[C@H](O)CC[C@]4(C)[C@H]3C[C@H](O)[C@]12C.[Na+] [CHA, sodium cholate] What is its recorded CMC?
Reply | 11

====

assay text: Critical micelle concentration (CMC) of bile salts
Format: physicochemical
setup conditions: approximate values; critical micellular concentration
Below, each entry is listed with its recorded CMC.
I only need the number, in mM, no unit after it.

Look over these answered cases.
- compound: "C[C@H](CCC(=O)NCCS(=O)(=O)[O-])[C@H]1CC[C@H]2[C@@H]3[C@H](O)C[C@@H]4C[C@H](O)CC[C@]4(C)[C@H]3CC[C@]12C.[Na+] [TCDCA, sodium taurochenodeoxycholate]"
  CMC / mM: 4
- compound: "C[C@H](CCC(=O)NCC(=O)[O-])[C@H]1CC[C@H]2[C@@H]3[C@H](O)C[C@@H]4C[C@H](O)CC[C@]4(C)[C@H]3CC[C@]12C.[Na+] [GCDCA, sodium glycochenodeoxycholate]"
  CMC / mM: 2
- compound: "C[C@H](CCC(=O)NCC(=O)[O-])[C@H]1CC[C@H]2[C@@H]3[C@H](O)C[C@@H]4C[C@H](O)CC[C@]4(C)[C@H]3C[C@H](O)[C@]12C.[Na+] [GCA, sodium glycocholate]"
  CMC / mM: 11
- compound: "C[C@H](CCC(=O)NCC(=O)[O-])[C@H]1CC[C@H]2[C@@H]3CC[C@@H]4C[C@H](O)CC[C@]4(C)[C@H]3C[C@H](O)[C@]12C.[Na+] [GDCA, sodium glycodeoxycholate]"
  CMC / mM: 2

Ask | Return reported CMC; argument: C[C@H](CCC(=O)NCCS(=O)(=O)[O-])[C@H]1CC[C@H]2[C@@H]3[C@H](O)C[C@@H]4C[C@H](O)CC[C@]4(C)[C@H]3C[C@H](O)[C@]12C.[Na+] [STC, sodium taurocholate]
Reply | 6
